- targetEntity: ErbB-3 receptor-Ig fusion (human) (UniProt P21860)
- methodNotes: displacement of 125I-HRG-β1 177-244 from ErbB-3-Ig
Note to self: EC50 under 200 nM means MET, ties and anything higher get NOT MET.

Problem: Dear reviewer, please state whether Trx-HRG-β1 146-244 S177A fusion (ligand) DDDDKAYVSSESPIRISVSTEGANTSSSTSTSTTGTAHLVKCAEKEKTFCVNGGECFMVKDLSNPSRYLCKCPNEFTGDRCQNYVMASFYKHLGIEFMEAEELY has EC50 strictly beneath 200 nM.
Result: MET

Problem: In the record for Trx-HRG-β1 146-244 G193A fusion (ligand) DDDDKAYVSSESPIRISVSTEGANTSSSTSTSTTGTSHLVKCAEKEKTFCVNAGECFMVKDLSNPSRYLCKCPNEFTGDRCQNYVMASFYKHLGIEFMEAEELY , is EC50 less than 200 nM?
Result: MET

Problem: Lab note: EC50 threshold 200 nM. Does this binder come in strictly under it? Trx-HRG-β1 146-244 T217A fusion (ligand) DDDDKAYVSSESPIRISVSTEGANTSSSTSTSTTGTSHLVKCAEKEKTFCVNGGECFMVKDLSNPSRYLCKCPNEFAGDRCQNYVMASFYKHLGIEFMEAEELY
Result: MET

Problem: State whether 200 nM exceeds EC50 recorded for Trx-HRG-β1 146-244 R207A fusion (ligand) DDDDKAYVSSESPIRISVSTEGANTSSSTSTSTTGTSHLVKCAEKEKTFCVNGGECFMVKDLSNPSAYLCKCPNEFTGDRCQNYVMASFYKHLGIEFMEAEELY .
Result: NOT MET

Problem: EC50 under 200 nM? Item: Trx-HRG-β1 146-244 E195A fusion (ligand) DDDDKAYVSSESPIRISVSTEGANTSSSTSTSTTGTSHLVKCAEKEKTFCVNGGACFMVKDLSNPSRYLCKCPNEFTGDRCQNYVMASFYKHLGIEFMEAEELY
Result: MET

Problem: Is EC50 of Trx-HRG-β1 146-244 H178A fusion (ligand) DDDDKAYVSSESPIRISVSTEGANTSSSTSTSTTGTSALVKCAEKEKTFCVNGGECFMVKDLSNPSRYLCKCPNEFTGDRCQNYVMASFYKHLGIEFMEAEELY strictly below 200 nM?
Result: NOT MET

Problem: Regarding Trx-HRG-β1 146-244 K211A fusion (ligand) DDDDKAYVSSESPIRISVSTEGANTSSSTSTSTTGTSHLVKCAEKEKTFCVNGGECFMVKDLSNPSRYLCACPNEFTGDRCQNYVMASFYKHLGIEFMEAEELY , kindly confirm whether its EC50 is beneath 200 nM.
Result: NOT MET

Problem: Criterion: EC50 strictly below 200 nM. Is it met by Trx-HRG-β1 146-244 F229A fusion (ligand) DDDDKAYVSSESPIRISVSTEGANTSSSTSTSTTGTSHLVKCAEKEKTFCVNGGECFMVKDLSNPSRYLCKCPNEFTGDRCQNYVMASAYKHLGIEFMEAEELY ?
Result: MET

Problem: Strictly below 200 nM: is that where EC50 of Trx-HRG-β1 146-244 F189A fusion (ligand) DDDDKAYVSSESPIRISVSTEGANTSSSTSTSTTGTSHLVKCAEKEKTACVNGGECFMVKDLSNPSRYLCKCPNEFTGDRCQNYVMASFYKHLGIEFMEAEELY sits?
Result: NOT MET

Problem: Answer whether the binder recombinantly produced HRG-β1 177-244 (ligand) SHLVKCAEKEKTFCVNGGECFMVKDLSNPSRYLCKCPNEFTGDRCQNYVMASFYKHLGIEFMEAEELY has EC50 strictly less than 200 nM
Result: MET
